Each entry below lists one item and its recorded self-cleavage value.
B1: HDV Ribozyme (parent)
chain: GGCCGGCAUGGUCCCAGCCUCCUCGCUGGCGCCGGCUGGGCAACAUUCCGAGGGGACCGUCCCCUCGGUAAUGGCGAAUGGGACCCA

# Variants of: B1
# assay procedure: self-cleavage, relative activity (ratio to wild type); higher = more cleavage; co-transcriptional
No unit in the answer, only the number.

Field: example entries. Status: answers known.
mutation id	measure	observed measurement
A56U A83C	self-cleavage	0.499
C61G U69C	self-cleavage	0.96
U69G U72C	self-cleavage	0.485
C32U C85U	self-cleavage	0.725
G6C A43G	self-cleavage	0

The recorded self-cleavage for entry A8U U20G equals 0.166

The recorded self-cleavage for entry C63A A70C equals 0.883
